B1: EHEE_rd2_0191 (parent)
chain: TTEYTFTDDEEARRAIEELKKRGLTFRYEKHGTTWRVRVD

# Variants of: B1
# protocol-summary: folding stability dG (cDNA display proteolysis); higher = more stable
# test-context: PBS, room temperature
measured-parameter: folding stability dG (kcal/mol)
The figure you give is taken to be in kcal/mol; do not add the unit.

Given the variant `TTEYTFTDDEEARRAIEGLKKRGLTFRYEKHGTTWRVRVD` , what is its reported folding stability dG?
1.74

Given the variant `TTEYTFTDDEEARRAIEELKKAGLTFRYEKHGTTWRVRVD` , what is its reported folding stability dG?
2.1

Given the variant `TTVYTFTDDEEARRAIEELKKRGLTFRYEKHGTTWRVRVD` , what is its reported folding stability dG?
2.56

Given the variant `TTEYTITDDEEARRAIEELKKRGLTFRYEKHGTTWRVRVD` , what is its reported folding stability dG?
0.614

Given the variant `TTEYTFLDDEEARRAIEELKKRGLTFRYEKHGTTWRVRVD` , what is its reported folding stability dG?
1.83

Given the variant `TTEYTFTDDEEAGRAIEELKKRGLTFRYEKHGTTWRVRVD` , what is its reported folding stability dG?
1.44

Given the variant `TTEYTFTDDEEADRAIEELKKRGLTFRYEKHGTTWRVRVD` , what is its reported folding stability dG?
0.9

Given the variant `TTEYTFTDDEEARRAIEELKKRGLTFRYEKHGTTWRLRVD` , what is its reported folding stability dG?
1.76

Given the variant `TTEYTFTDDEEARRAIEELKKRGLTLRYEKHGTTWRVRVD` , what is its reported folding stability dG?
1.61

Given the variant `TTEYTFTDDEEARRAIEELKKRGLTFRYEKHGTTHRVRVD` , what is its reported folding stability dG?
1.59

Given the variant `TTEYTFTDDEEARRAIEELKKRGLTFRYEKVGTTWRVRVD` , what is its reported folding stability dG?
2.56

Given the variant `TTEYTFTDDEEARRAIEELKKRGLTFRYEKHGTTWRVRHD` , what is its reported folding stability dG?
-0.386

Given the variant `TTEYTFTDDEEARRAIEEVKKRGLTFRYEKHGTTWRVRVD` , what is its reported folding stability dG?
0.238

Given the variant `TTEYTFTDDEEARRAIEELKKDGLTFRYEKHGTTWRVRVD` , what is its reported folding stability dG?
1.03

Given the variant `TTETTFTDDEEARRAIEELKKRGLTFRYEKHGTTWRVRVD` , what is its reported folding stability dG?
0.315

Given the variant `TTEYTFTDDEEARRAIEELKKRGLTFFYEKHGTTWRVRVD` , what is its reported folding stability dG?
2.29

Given the variant `TTEYTFTDDEEARRAIEELKKRGLTFRYMKHGTTWRVRVD` , what is its reported folding stability dG?
1.94

Given the variant `TTEYTFTFDEEARRAIEELKKRGLTFRYEKHGTTWRVRVD` , what is its reported folding stability dG?
0.882

Given the variant `TTEYTFTDDEEARRAIEELKKRGLTFRYKKHGTTWRVRVD` , what is its reported folding stability dG?
1.72

Given the variant `TTEYTFTDDEEATRAIEELKKRGLTFRYEKHGTTWRVRVD` , what is its reported folding stability dG?
1.83

Given the variant `TTEYTFTGDEEARRAIEELKKRGLTFRYEKHGTTWRVRVD` , what is its reported folding stability dG?
1.33

Given the variant `TTEYTFTDDEEARRALEELKKRGLTFRYEKHGTTWRVRVD` , what is its reported folding stability dG?
1.64

Given the variant `TTEYNFTDDEEARRAIEELKKRGLTFRYEKHGTTWRVRVD` , what is its reported folding stability dG?
1.36

Given the variant `TTEYTFTDDEEARRAIEELKKRGLTFRYEKHGTTWLVRVD` , what is its reported folding stability dG?
2.71

Given the variant `QTEYTFTDDEEARRAIEELKKRGLTFRYEKHGTTWRVRVD` , what is its reported folding stability dG?
2.04

Given the variant `TTEYTFTDDWEARRAIEELKKRGLTFRYEKHGTTWRVRVD` , what is its reported folding stability dG?
1.93

Given the variant `TTEYTFTDDEEARRAIEELKKRGLTFVYEKHGTTWRVRVD` , what is its reported folding stability dG?
2.51

Given the variant `TTEYTFTDDEEARRAIEELKKRGLTFRYERHGTTWRVRVD` , what is its reported folding stability dG?
1.99

Given the variant `TTEYTFTDDEEARRAIEELKKRGLTTRYEKHGTTWRVRVD` , what is its reported folding stability dG?
0.447

Given the variant `TTEYTFTDDVEARRAIEELKKRGLTFRYEKHGTTWRVRVD` , what is its reported folding stability dG?
2.02

Given the variant `TTEATFTDDEEARRAIEELKKRGLTFRYEKHGTTWRVRVD` , what is its reported folding stability dG?
0.059

Given the variant `TTEYTFTDYEEARRAIEELKKRGLTFRYEKHGTTWRVRVD` , what is its reported folding stability dG?
2.39

Given the variant `TTEYTFTDDEEARRAIEELKKRGLTFIYEKHGTTWRVRVD` , what is its reported folding stability dG?
2.29

Given the variant `TTEYTFTDDEEARRAIEELKKRGLTFRYEKHGTRWRVRVD` , what is its reported folding stability dG?
1.54

Given the variant `TTEYTFTDDEEARRAIEELKKRDLTFRYEKHGTTWRVRVD` , what is its reported folding stability dG?
0.517

Given the variant `TTEYTFTIDEEARRAIEELKKRGLTFRYEKHGTTWRVRVD` , what is its reported folding stability dG?
1.2

Given the variant `TTEYTFTDDEEARRAIEELKKRGLTFRYEKDGTTWRVRVD` , what is its reported folding stability dG?
2.39

Given the variant `TTEYTFTDDEEKRRAIEELKKRGLTFRYEKHGTTWRVRVD` , what is its reported folding stability dG?
-0.512

Given the variant `TTEYTFTDDEEARRAIEELKKRGLTFRYEKNGTTWRVRVD` , what is its reported folding stability dG?
2.21

Given the variant `TTEYTFTDDEEARRAIEELKKRGLTFRYEHHGTTWRVRVD` , what is its reported folding stability dG?
1.51

Given the variant `TTEYTFTDDEEARRAIYELKKRGLTFRYEKHGTTWRVRVD` , what is its reported folding stability dG?
2.02

Given the variant `TTEYTFTDDEEARRAIEELKKRGLTMRYEKHGTTWRVRVD` , what is its reported folding stability dG?
0.795

Given the variant `TTEYDFTDDEEARRAIEELKKRGLTFRYEKHGTTWRVRVD` , what is its reported folding stability dG?
0.819

Given the variant `TTEYTFTDDEEARRAIEELKKRGLTFRYEKHGTTWRVRID` , what is its reported folding stability dG?
2.02

Given the variant `TTEYTFTDDEEARRAIEELKKRGHTFRYEKHGTTWRVRVD` , what is its reported folding stability dG?
1.46

Given the variant `TTEYTFTDDEEARRAIEELKERGLTFRYEKHGTTWRVRVD` , what is its reported folding stability dG?
1.71
